measurement-target: Nav1.6 channel (Homo sapiens (Human), UniProt Q9UQD0)
Sequence (Q9UQD0 whole entry): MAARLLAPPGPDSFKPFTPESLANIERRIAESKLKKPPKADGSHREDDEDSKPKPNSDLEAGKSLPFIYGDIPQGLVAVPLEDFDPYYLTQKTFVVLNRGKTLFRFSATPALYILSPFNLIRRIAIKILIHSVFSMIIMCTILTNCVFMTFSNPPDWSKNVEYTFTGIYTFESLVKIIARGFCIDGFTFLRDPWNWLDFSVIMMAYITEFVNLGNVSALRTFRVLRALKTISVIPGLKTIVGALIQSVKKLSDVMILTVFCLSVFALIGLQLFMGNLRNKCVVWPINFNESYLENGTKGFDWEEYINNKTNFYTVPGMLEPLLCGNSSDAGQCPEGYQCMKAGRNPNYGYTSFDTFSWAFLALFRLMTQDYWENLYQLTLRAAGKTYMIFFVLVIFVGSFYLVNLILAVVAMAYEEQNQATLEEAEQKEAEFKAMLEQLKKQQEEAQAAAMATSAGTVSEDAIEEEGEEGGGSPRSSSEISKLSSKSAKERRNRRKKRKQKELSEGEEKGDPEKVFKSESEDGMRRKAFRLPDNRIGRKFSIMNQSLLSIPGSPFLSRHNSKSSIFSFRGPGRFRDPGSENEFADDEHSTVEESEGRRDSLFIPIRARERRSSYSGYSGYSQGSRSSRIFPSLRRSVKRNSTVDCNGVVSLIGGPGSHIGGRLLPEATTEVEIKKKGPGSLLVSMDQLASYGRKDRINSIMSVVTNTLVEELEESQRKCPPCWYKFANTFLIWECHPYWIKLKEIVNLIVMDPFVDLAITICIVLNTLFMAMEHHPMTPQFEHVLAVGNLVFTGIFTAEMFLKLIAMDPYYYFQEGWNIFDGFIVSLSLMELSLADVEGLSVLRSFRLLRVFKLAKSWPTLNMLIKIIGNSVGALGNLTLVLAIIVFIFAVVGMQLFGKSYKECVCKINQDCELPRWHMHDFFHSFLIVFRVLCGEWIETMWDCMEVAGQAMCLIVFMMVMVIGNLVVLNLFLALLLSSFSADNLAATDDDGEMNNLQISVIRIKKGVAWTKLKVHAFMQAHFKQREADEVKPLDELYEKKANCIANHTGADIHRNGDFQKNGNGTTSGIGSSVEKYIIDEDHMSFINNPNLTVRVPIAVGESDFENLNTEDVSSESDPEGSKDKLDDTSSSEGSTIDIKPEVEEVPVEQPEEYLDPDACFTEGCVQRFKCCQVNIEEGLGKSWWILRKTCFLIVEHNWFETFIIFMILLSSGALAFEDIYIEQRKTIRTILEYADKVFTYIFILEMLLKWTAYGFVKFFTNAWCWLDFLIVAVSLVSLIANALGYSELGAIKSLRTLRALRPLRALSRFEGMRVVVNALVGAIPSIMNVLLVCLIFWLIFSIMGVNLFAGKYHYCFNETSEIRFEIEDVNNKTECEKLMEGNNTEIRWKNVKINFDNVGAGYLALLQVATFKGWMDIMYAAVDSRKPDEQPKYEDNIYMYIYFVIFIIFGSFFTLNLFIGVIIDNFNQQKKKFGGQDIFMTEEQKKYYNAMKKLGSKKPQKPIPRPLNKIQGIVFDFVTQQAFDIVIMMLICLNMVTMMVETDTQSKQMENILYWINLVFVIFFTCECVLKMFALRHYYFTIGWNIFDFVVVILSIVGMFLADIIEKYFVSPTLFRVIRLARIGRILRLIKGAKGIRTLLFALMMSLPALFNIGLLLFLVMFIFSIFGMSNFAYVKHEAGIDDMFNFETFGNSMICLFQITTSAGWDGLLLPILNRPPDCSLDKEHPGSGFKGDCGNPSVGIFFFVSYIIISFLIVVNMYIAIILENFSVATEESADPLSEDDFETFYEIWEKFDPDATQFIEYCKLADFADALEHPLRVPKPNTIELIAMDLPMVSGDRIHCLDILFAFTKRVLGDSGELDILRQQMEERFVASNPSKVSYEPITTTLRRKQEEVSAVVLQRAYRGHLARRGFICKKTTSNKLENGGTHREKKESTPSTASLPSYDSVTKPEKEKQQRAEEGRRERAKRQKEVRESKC
measurement-protocol: Nav1.6 inhibition, IonWorks Quattro electrophysiology
Assay type: cell-based
experimental-parameters: 1 μM; normalized to vehicle (0%) and maximal inhibition control (100%)
observed-property: inhibition at 1 µM (%)

Some solved entries appear below for comparison.
                                   compound                        measurement_target  reported
0  O=C(C1CN(Cc2cccc(Oc3ccccc3)c2)CCO1)N1CCOCC1 (centres unmarked) [Example 106, reference compound]  Nav1.6 channel (Homo sapiens (Human), UniProt Q9UQD0)      -0.7
1  CNC(=O)[C@@H]1CN(Cc2cnc(Oc3ccc(Cl)cc3)nc2)CCO1  Nav1.6 channel (Homo sapiens (Human), UniProt Q9UQD0)     -11.8

(1) CNC(=O)[C@@H]1CN(Cc2cnc(Oc3ccc(C)cc3)nc2)CCO1
(2) CNC(=O)[C@@H]1CN(Cc2cnc(Oc3ccc(F)cc3C)nc2)CCO1
(3) CNC(=O)[C@@H]1CN(Cc2cnc(Oc3ccc(C)cc3F)nc2)CCO1
Please rank these compounds by inhibition at 1 µM in descending order. State the ranking by listing the labels in the requested order. 2, 1, 3

This collection of values is drawn from patent US11104670B2.
